Target: recombinant human AKR1C3 (Homo sapiens)
Construct: GST (cleaved yes)
Sequence (P42330 whole entry): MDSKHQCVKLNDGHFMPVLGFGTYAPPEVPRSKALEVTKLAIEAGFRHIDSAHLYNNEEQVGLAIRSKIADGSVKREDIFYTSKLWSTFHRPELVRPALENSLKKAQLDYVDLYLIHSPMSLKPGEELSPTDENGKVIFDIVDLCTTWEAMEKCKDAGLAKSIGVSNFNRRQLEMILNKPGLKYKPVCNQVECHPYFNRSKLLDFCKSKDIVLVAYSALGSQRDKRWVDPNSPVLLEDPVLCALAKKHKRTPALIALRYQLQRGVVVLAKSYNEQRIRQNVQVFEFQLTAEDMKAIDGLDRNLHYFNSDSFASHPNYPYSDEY
Experiment: AKR1C3-inhibitory activity assay (generation of Coumberol from Coumberone)
Details: Coumberone 0.3 μM, NADPH 10 μM, 22° C., typically 90 min, average or median values
quantity kind: IC50 (nM)

(1) C[C@@H]1CN(S(=O)(=O)c2ccccc2Br)C[C@H](C)N1C(=O)c1cnn[nH]1
(2) CC1(C)CN(C(=O)c2cnn[nH]2)CCN1S(=O)(=O)c1ccc(Cl)c(Cl)c1
(3) C[C@@H]1CN(C(=O)c2c[nH]nn2)[C@@H](C)CN1S(=O)(=O)c1ccc(Cl)s1
**Q:** Sort the listed compounds above so the one with the largest IC50 comes first and the smallest comes last. Hello, could you send the labels back in the order asked? Thank you.
**A:** 3, 2, 1
